Entry source: ChEMBL document CHEMBL1125337

Would you mind telling me the reported MIC of each entry?
test system: Staphylococcus epidermidis; assay: Minimum inhibitory concentration against Staphylococcus epidermidis ATCC 12228; assay type: functional
The response must be a number in µg/mL with no trailing unit.

Note to self: MIC recorded for CC(=O)N[C@@H]1[C@H](O[C@@H]2c3ccc(c(Cl)c3)Oc3cc4cc(c3O[C@@H]3O[C@@H](CO)[C@@H](O)[C@H](O)[C@@H]3NC(=O)CCCCCCC(C)C)Oc3ccc(cc3Cl)C[C@H]3NC(=O)[C@H](N)c5ccc(O)c(c5)Oc5cc(O)cc(c5)[C@H](NC3=O)C(=O)N[C@H]4C(=O)N[C@H]3C(=O)N[C@@H]2C(=O)N[C@H](C(=O)NCCCNCCCCN)c2cc(O)cc(O[C@H]4O[C@H](CO)[C@@H](O)[C@@H](O)[C@@H]4O)c2-c2cc3ccc2O)O[C@@H](CO)[C@@H](O)[C@@H]1O was 0.063

Note to self: MIC recorded for CC(=O)N[C@@H]1[C@H](O[C@@H]2c3ccc(c(Cl)c3)Oc3cc4cc(c3O[C@@H]3O[C@@H](CO)[C@@H](O)[C@H](O)[C@@H]3NC(=O)CCCCCCC(C)C)Oc3ccc(cc3Cl)C[C@H]3NC(=O)[C@H](N)c5ccc(O)c(c5)Oc5cc(O)cc(c5)[C@H](NC3=O)C(=O)N[C@H]4C(=O)N[C@H]3C(=O)N[C@@H]2C(=O)N[C@H](C(=O)NCCNCCCNCCN)c2cc(O)cc(O[C@H]4O[C@H](CO)[C@@H](O)[C@@H](O)[C@@H]4O)c2-c2cc3ccc2O)O[C@@H](CO)[C@@H](O)[C@@H]1O was 0.063

Note to self: MIC recorded for NCCCN(CCCN)CCCNC(=O)[C@H]1NC(=O)[C@H]2NC(=O)[C@H](NC(=O)[C@@H]3NC(=O)[C@H]4NC(=O)[C@@H](Cc5ccc(c(Cl)c5)Oc5cc3cc(c5O)Oc3ccc(cc3Cl)[C@H]2O)NC(=O)[C@H](N)c2ccc(O)c(c2)Oc2cc(O)cc4c2)c2ccc(O)c(c2)-c2c(O)cc(O)cc21 was 0.008

Note to self: MIC recorded for CC(=O)N[C@@H]1[C@H](O[C@@H]2c3ccc(c(Cl)c3)Oc3cc4cc(c3O[C@@H]3O[C@@H](CO)[C@@H](O)[C@H](O)[C@@H]3NC(=O)CCCCCCC(C)C)Oc3ccc(cc3Cl)C[C@H]3NC(=O)[C@H](N)c5ccc(O)c(c5)Oc5cc(O)cc(c5)[C@H](NC3=O)C(=O)N[C@H]4C(=O)N[C@H]3C(=O)N[C@@H]2C(=O)N[C@H](C(=O)NCCCN(CCCN)CCCN)c2cc(O)cc(O[C@H]4O[C@H](CO)[C@@H](O)[C@@H](O)[C@@H]4O)c2-c2cc3ccc2O)O[C@@H](CO)[C@@H](O)[C@@H]1O was 0.125

* * *

system: Staphylococcus epidermidis; assay: Minimum inhibitory concentration against Staphylococcus epidermidis ATCC 12228; assay type: functional
property.measured: MIC (µg/mL)
The response must be a number in µg/mL with no trailing unit.

Note to self: MIC recorded for NCCCNCCCCNCCCNC(=O)[C@H]1NC(=O)[C@H]2NC(=O)[C@H](NC(=O)[C@@H]3NC(=O)[C@H]4NC(=O)[C@@H](Cc5ccc(c(Cl)c5)Oc5cc3cc(c5O)Oc3ccc(cc3Cl)[C@H]2O)NC(=O)[C@H](N)c2ccc(O)c(c2)Oc2cc(O)cc4c2)c2ccc(O)c(c2)-c2c(O)cc(O)cc21 was 0.063

Note to self: MIC recorded for NCCCCNCCCNC(=O)[C@H]1NC(=O)[C@H]2NC(=O)[C@H](NC(=O)[C@@H]3NC(=O)[C@H]4NC(=O)[C@@H](Cc5ccc(c(Cl)c5)Oc5cc3cc(c5O)Oc3ccc(cc3Cl)[C@H]2O)NC(=O)[C@H](N)c2ccc(O)c(c2)Oc2cc(O)cc4c2)c2ccc(O)c(c2)-c2c(O)cc(O)cc21 was 0.063
